Protocol details: viability of uninfected HEp-2 cells – cell-based, HTS, cytotoxicity control for RSV inhibitor project, dose response (AID 2410);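 also: cells exposed to compound for six days before readout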
Study conditions: HEp-2 viability, luminescence, cytotoxicity counter-screen; series mostly up to 50 µM
About 2,100 (84%) of roughly 2,500 compounds were called active. The set was probably picked from earlier hits. These entries were drawn from the full list. Entries with a potency or affinity are not part of this list.
Observed property: outcome

# annotated cases, reported outcome shown
[
  {
    "Compound": "Cc1ccc(-c2nc3c(c(=O)c4ccccc4n3C)c(=O)n2Cc2ccco2)cc1",
    "outcome": "inactive"
  },
  {
    "Compound": "CCCCCC(=O)Nc1nc(C)c(-c2csc(Nc3cc(Cl)ccc3OC)n2)s1",
    "outcome": "inactive"
  },
  {
    "Compound": "COc1ccc(Cn2c(-c3ccccc3C)nc3c(c(=O)c4ccccc4n3C)c2=O)cc1",
    "outcome": "inactive"
  },
  {
    "Compound": "O=[N+]([O-])c1ccc(N/N=C/c2cccnc2)cc1",
    "outcome": "inactive"
  },
  {
    "Compound": "CNS(=O)(=O)c1ccc(OC)c(-c2nnc3c4ccccc4c(C)nn23)c1",
    "outcome": "inactive"
  },
  {
    "Compound": "CCOC(=O)N1CCN(C(=O)CSc2nnc(-c3ccc(C)c(C)c3)o2)CC1",
    "outcome": "inactive"
  }
]

## Input Could you please provide reported outcome for COc1ccc(C(=O)O/N=C2\C(=O)N(C)c3ccccc32)cc1 ? Thanks!
## Output inactive

## Input Could you please provide reported outcome for CCN(CC)c1nc(Nc2ccc(Cl)cc2)nc(OCC#N)n1 ? Thanks!
## Output inactive

* * *

Protocol details: viability of uninfected HEp-2 cells – cell-based, HTS, cytotoxicity control for RSV inhibitor project, dose response (AID 2410);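 also: cells exposed to compound for six days before readout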
Study conditions: HEp-2 viability, luminescence, cytotoxicity counter-screen; series mostly up to 50 µM
Hit rate of the full screen: of about 2,500 compounds, about 2,100 (84%) were called active. So high a share suggests a set chosen from earlier hits. Only a sample is shown. Measured potencies and affinities stand elsewhere.
Observed property: outcome

# annotated cases, reported outcome shown
[
  {
    "Compound": "CSc1nc(C)c(C(=O)Nc2ccccc2)c(-c2ccco2)c1C#N",
    "outcome": "inactive"
  },
  {
    "Compound": "CCCC(=O)Nc1ccc(-c2nc3cc(C)c(C)cc3o2)cc1",
    "outcome": "inactive"
  },
  {
    "Compound": "CC(Oc1ccc(F)cc1)C(=O)Nc1ccc2ccccc2c1 (stereo unspecified)",
    "outcome": "inactive"
  },
  {
    "Compound": "CC/C(=N\\Nc1ccc([N+](=O)[O-])cc1)c1ccccc1",
    "outcome": "inactive"
  }
]

## Input Could you please provide reported outcome for Cc1ccc(N2C=Nc3ccc(C)c4nc(C)cc2c34)cc1 ? Thanks!
## Output inactive

## Input Could you please provide reported outcome for CCCNC(=O)N1CCN(c2nc(C(C)C)c3c(c2C#N)CC(C)(C)OC3)CC1 ? Thanks!
## Output inactive

## Input Could you please provide reported outcome for O=[N+]([O-])c1ccc(N/N=C/c2ccccc2)cc1 ? Thanks!
## Output inactive

## Input Could you please provide reported outcome for Nc1c2c(nc3sc4c(c13)CCCC4)-c1ccccc1CC2 ? Thanks!
## Output inactive

## Input Could you please provide reported outcome for CN(CC(=O)NCc1ccc(F)cc1)S(=O)(=O)c1cccc2nsnc12 ? Thanks!
## Output inactive

## Input Could you please provide reported outcome for CCN(c1cc(C)cc(C)c1)S(=O)(=O)c1nnc(NC(=O)C(C)C)s1 ? Thanks!
## Output inactive

## Input Could you please provide reported outcome for Cc1ccc(OCC(=O)Nc2c[nH]c(=O)[nH]c2=O)cc1C ? Thanks!
## Output inactive
